Test description: yeast display, Sf9 membrane polyspecificity reagent, FACS + sequencing; frameworks hold sequencing errors
Assay endpoint: polyreactivity (PSR sort gate)

Examples with answers:
| Sequence | polyreactivity (PSR sort gate) |
| --- | --- |
| QVQLVESEGGLVQAGGSLRLSCAASGRTYYAMGWYRQAPGKERELVAAISGTGASTYYADSVKGRFTISRDNAKNTVYLQMNSLKPEDTAVYYCAAEWFYYNTQQWFDYWGQGTQVPVSS | low polyreactivity |
| QDQLVDSGGGLVQAGGSLRLSCAASASTFDPNLMPSYRQAPGKEREVVAAISSRSGSTSYADSVKGRFTISRDNAKNTDYLQMNSLKPEDTAVYYCAARVYGLPLRMYSWGQGTQVTGSS | high polyreactivity |
| QVHLVESGGGLVQAGGSLRLSCAASGFTFSSNAMGWYRQAPGKERELVADISFNSTSTYYADSVKGRFTISRDNAKNTVYLQMNSLKPEDTAVYYCAADVPRVQSEPEYDYWGQGTQVTVSS | low polyreactivity |
| QVQLVESGGGLVQAGGSLRLSCAASGRTFPYYAMGWYRQAPGKERELVAAINSGGITNYADSVKGRFTISRDNAKNTVYLQMNSLKPEDTAVYYCAAKTAFYRERGYWGQGTQVTVSS | low polyreactivity |

Now consider the entry below.
Supply measured polyreactivity (PSR sort gate) of QVQLQESGGGLAQAGGSLRLSCAASGNIFDADIMGWYRKAPGKERELVGSITDGGSTNYVDSVKGRFTISRDNAKNTVHLQMNSLKPEDTAVYYCAAIAYPEIPTYFDYDSDCFNWGHGTQVTVSS in your reply.
high polyreactivity

====

Test description: yeast display, Sf9 membrane polyspecificity reagent, FACS + sequencing; frameworks hold sequencing errors
Assay endpoint: polyreactivity (PSR sort gate)

Examples with answers:
| Sequence | polyreactivity (PSR sort gate) |
| --- | --- |
| QVQLVESGGGLVQAGGSLRLSCAASGRTFYGNAMGWYRQAPGKERELVAAISWSGGSTYYADSVKGRFTISRDNAKNTVYLQMNSLKPEDTAVYYCNADYFAWDLMYYWGHGTQVTVSS | low polyreactivity |
| QVKLVESGGGLVQAGGSLRLSCAASGSIISGYAMGWYRQAPGKERELVAAISSSGGRTYYADSVKGRFTISRDNAKNTVYLQMYSLKPEDTAVYYCATVWSIVRGSYYNRYDYWGQGTQVTVSS | high polyreactivity |
| QVQLVESGGGLVQAGGSLRLSCAASGRTFGANAMGWYRQAPGKERELVAAISSSDDSTYYADSVKGRFTISRDNAKNTVYLQMNSLKPEDTAVYYCAAEDVYPQLDYWGQGTQVTVSS | low polyreactivity |
| QVQLEESGGGLFQAGGSLRLSCAASGSTFADNAMGWYRQATGKEAEFVAGISTNGGSTYYADSVKGRFTISRDNAKNTVYLQMNSLKPEDTAVYYCNADSIDPFLYDYWGQGTQVTVSS | low polyreactivity |

Supply measured polyreactivity (PSR sort gate) of QVQLVESGGGLVQAGGSLRLSCAASGFTFWRYAKGWYRHAPGKERELVAAISSGGSTNYADSVKGRFTISRDNAKNTVYIQMNSLKPEDTAVYYCNARYYHKRSTRVIFPYDYWGQGTQVTVSS in your reply.
high polyreactivity

====

Test description: yeast display, Sf9 membrane polyspecificity reagent, FACS + sequencing; frameworks hold sequencing errors

| Sequence | polyreactivity (PSR sort gate) |
| --- | --- |
| QVQLVESGGGLVQAGGSLRLSCAASGSILESNVMGWYRQAPGKERELVASISSSGDSTYADSVKGRFTISRDNAKNTVYLQMNSLKPEDTAVYYCNADRTQDRNPYTYATFDYWGQGTQVTVSS | low polyreactivity |
| QVQLVESGGGLVQAGGSLRLSCAASGITFRYNAMGWYRQAPGKERELVAAITFSGGSTYYADSVKGRFTISRDNAKNTVDLQMNSLKPEDTAVYYCAKLGSTSSRGNYDYWGQGTQVTVSS | low polyreactivity |
| QVQLVESGGGLVQAGGSLRLTCAASGLIFRRYAMGWYRQAPGKERELVAAINTSGGSTYYADSVKGRFTISRDNAKNTVYLQMNSLKPEDSAVSYCNTVSPYKYDWGKGTQVTVSS | low polyreactivity |
